Hey, just so you know, these numbers are from patent US20240209076A1.

Exercise: for every item that follows, state its recorded kon.
biological target: T1, recombinant human IL-6 (human, UniProt P05231 30-212); assay: SPR (Biacore), supernatant IgG on Protein A, 25 C
T1 construct: Flowed in solution over the captured antibodies
T1 sequence (P05231 30-212 limits assumed): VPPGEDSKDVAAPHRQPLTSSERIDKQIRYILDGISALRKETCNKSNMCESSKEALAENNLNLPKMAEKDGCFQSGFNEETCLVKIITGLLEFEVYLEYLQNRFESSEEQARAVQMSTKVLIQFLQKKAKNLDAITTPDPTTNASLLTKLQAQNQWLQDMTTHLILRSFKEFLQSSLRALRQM
Give the quantity in M⁻¹ s⁻¹, number only.

Quick one: kon for anti-IL-6 antibody, heavy chain I108E, light chain WT (antibody, IgG1, V domains shown, Full IgG1 tested; V domains derived as in m2) VH: EVQLVESGGGLVQPGGSLRLSCAASGFTFSPFAMSWVRQAPGKGLEWVAKISPGGSWTYYSDTVTGRFTFSLDTSKSTAYLQMNSLRAEDTAVYYCARQLWGYYALDEWGQGTLVTVSS VL: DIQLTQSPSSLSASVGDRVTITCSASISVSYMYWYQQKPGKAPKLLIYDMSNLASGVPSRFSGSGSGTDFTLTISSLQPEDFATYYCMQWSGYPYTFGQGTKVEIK ?
571000

Quick one: kon for anti-IL-6 antibody, heavy chain F27R, light chain WT (antibody, IgG1, V domains shown, Full IgG1 tested; V domains derived as in m2) VH: EVQLVESGGGLVQPGGSLRLSCAASGRTFSPFAMSWVRQAPGKGLEWVAKISPGGSWTYYSDTVTGRFTFSLDTSKSTAYLQMNSLRAEDTAVYYCARQLWGYYALDIWGQGTLVTVSS VL: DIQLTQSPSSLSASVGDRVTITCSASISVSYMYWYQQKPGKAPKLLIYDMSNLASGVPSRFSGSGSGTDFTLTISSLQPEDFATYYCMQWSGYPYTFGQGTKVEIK ?
503000
